Listed molecules paired with reported EC50
# Study target: human β3-AR (Homo sapiens, UniProt P13945)
# Construct: expressed in transfected cells; host or cells: CHO (Chinese hamster ovary) cells, stably transfected
# Sequence (P13945 whole entry): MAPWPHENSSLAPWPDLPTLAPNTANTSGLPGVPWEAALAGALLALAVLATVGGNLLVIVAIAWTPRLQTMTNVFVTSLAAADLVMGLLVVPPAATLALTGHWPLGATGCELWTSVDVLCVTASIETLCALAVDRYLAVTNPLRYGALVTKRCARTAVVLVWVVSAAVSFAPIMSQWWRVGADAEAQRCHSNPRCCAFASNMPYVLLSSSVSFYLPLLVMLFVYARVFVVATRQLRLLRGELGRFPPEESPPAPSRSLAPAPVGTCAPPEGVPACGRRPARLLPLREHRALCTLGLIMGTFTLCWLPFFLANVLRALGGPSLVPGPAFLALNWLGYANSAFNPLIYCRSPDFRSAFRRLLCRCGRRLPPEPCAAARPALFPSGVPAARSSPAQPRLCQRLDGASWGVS
# Test summary: cAMP functional agonist assay (LANCE TR-FRET) in CHO cells expressing cloned human β3-AR
# Assay type: cell-based
# Condition: CHO cells stably expressing cloned human β3-adrenoceptor; cAMP release; read-out: Human β3-AR Agonism EC50
# Procedure: The ability of compounds to activate the human β3-AR receptor was measured using a CHO cell line stably expressing the cloned human β1-, β2-, and β3-adrenoceptors (β-AR). […] To quantify the amount of cAMP released following β-AR activation, the LANCE cAMP kit (Perking Elmer), a time-resolved fluorescence resonance energy transfer immunoassay, was used. […] For each assay, a cAMP standard curve was included and used to convert fluorescence readings directly to cAMP amounts. […]
Answer format: numeric, nM implied, no suffix.

>>> print(df.to_string())
                                   molecule  value
0  CN(Cc1ccc(Cl)nc1)C(=O)c1ccc(C[C@@H]2CC[C@H]([C@H](O)c3ccccc3)N2)cc1     28

Query: State the recorded EC50 for this entry: Cc1cc(C(Cc2ccccc2)N(C)C(=O)c2ccc(C[C@@H]3CC[C@H]([C@H](O)c4cccnc4)N3)cc2)[nH]n1 (stereo partly shown)
Result: 7

Query: Repeat with Cc1cc(C(Cc2ccccc2)N(C)C(=O)c2ccc(C[C@@H]3CC[C@H]([C@H](O)c4ccc(Cl)nc4)N3)cc2)[nH]n1 (stereo partly shown)
Result: 3

Query: Repeat with CN(Cc1cccc(=O)[nH]1)C(=O)c1ccc(C[C@@H]2CC[C@H]([C@H](O)c3ccccc3)N2)cc1
Result: 9

====

# Study target: human β3-AR (Homo sapiens, UniProt P13945)
# Construct: expressed in transfected cells; host or cells: CHO (Chinese hamster ovary) cells, stably transfected
# Test summary: cAMP functional agonist assay (LANCE TR-FRET) in CHO cells expressing cloned human β3-AR
# Type: cell-based
Readout label: pEC50
Please report pEC50 as the negative decimal logarithm of the molar concentration, giving only the number.

Query: State the recorded pEC50 for this entry: CC(c1cccnc1)N(C)C(=O)c1ccc(C[C@@H]2CC[C@H]([C@H](O)c3ccc(Cl)nc3)N2)cc1 (stereo partly shown)
Result: 8.70

====

# Study target: human β3-AR (Homo sapiens, UniProt P13945)
# Construct: expressed in transfected cells; host or cells: CHO (Chinese hamster ovary) cells, stably transfected
# Test summary: cAMP functional agonist assay (LANCE TR-FRET) in CHO cells expressing cloned human β3-AR
# Assay type: cell-based
# Condition: percent maximum activation relative to isoproterenol
Label Satisfied for high-side Human β3-AR Agonist Activity (%) (at or above 90%) and Not satisfied for low-side Human β3-AR Agonist Activity (%) (below it).

Example entries and their recorded answers appear below.
>>> print(df.to_string())
                           substance_smiles                              study_target    class_label
0  CN(Cc1cccnc1F)C(=O)c1ccc(C[C@@H]2CC[C@H]([C@H](O)c3ccc(Cl)nc3)N2)cc1  human β3-AR (Homo sapiens, UniProt P13945)      Satisfied
1  Cc1cc(CN(C)C(=O)c2ccc(C[C@@H]3CC[C@H]([C@H](O)c4ccccc4)N3)cc2)n[nH]1  human β3-AR (Homo sapiens, UniProt P13945)      Satisfied
2  COCc1cc(CN(C)C(=O)c2ccc(C[C@@H]3CC[C@H]([C@H](O)c4ccc(Cl)nc4)N3)cc2)n[nH]1  human β3-AR (Homo sapiens, UniProt P13945)      Satisfied
3  CN(Cc1cccnc1)C(=O)c1ccc(C[C@@H]2CC[C@H]([C@H](O)c3ccccc3)N2)cc1  human β3-AR (Homo sapiens, UniProt P13945)  Not satisfied

Query: Could you verify whether the entry CN(Cc1nc2ccsc2c(=O)[nH]1)C(=O)c1ccc(C[C@@H]2CC[C@H]([C@H](O)c3ccccc3)N2)cc1 shows Human β3-AR Agonist Activity (%) of no less than 90%?
Result: Satisfied
